test system: Saccharomyces cerevisiae BY4741 SeMeCo community; test: z-score of subpopulation abundance vs DMSO median, subpopulation auxotrophic for M; higher = larger share of this subpopulation than in DMSO controls; conditions: 10 µM; 24 h; SM minimal medium; subpopulation (auxotrophy): M
Tick class 1 if z-score of subpopulation abundance is -0.6 or greater. Tick class 0 if z-score of subpopulation abundance is less than -0.6.

**Query** I'd appreciate it if you could say whether CN[C@H]1C(=O)N[C@@H]2Cc3ccc(cc3)Oc3cc4cc(c3O[C@@H]3O[C@H](C(=O)O)[C@@H](O)[C@H](O)[C@H]3NC(=O)CCCCCCCCC(C)C)Oc3ccc(cc3Cl)[C@@H](O)[C@@H]3NC(=O)[C@H](NC(=O)[C@@H]4NC(=O)[C@@H](NC2=O)c2cc(cc(O)c2Cl)Oc2cc1ccc2O)c1ccc(O)c(c1)-c1c(O[C@H]2O[C@H](CO)[C@@H](O)[C@H](O)[C@@H]2O)cc(O)cc1[C@@H](C(=O)NCCCN(C)C)NC3=O [Dalbavancin] has z-score of subpopulation abundance at least equal to -0.6.
**Result** class 0

* * *

test system: Saccharomyces cerevisiae BY4741 SeMeCo community; assay: z-score of subpopulation abundance vs DMSO median, subpopulation auxotrophic for LM; higher = larger share of this subpopulation than in DMSO controls; settings: 10 µM; 24 h; SM minimal medium; subpopulation (auxotrophy): LM
Property: z-score of subpopulation abundance

{"columns": ["Molecule", "z-score of subpopulation abundance"],
 "data": [
  ["O=C(O)C[C@H](O)C[C@H](O)/C=C/c1c(C2CC2)nc2ccccc2c1-c1ccc(F)cc1 [Pitavastatin Calcium]", -0.2]
]}

**Query** Query: z-score of subpopulation abundance; subject: CN1C2CCC1CC(OC(=O)C(O)c1ccccc1)C2 (stereo not drawn) [Homatropine Bromide]
**Result** -0.11

**Query** What do we get for COCC(=O)Nc1cc(Sc2ccccc2)ccc1N=C(NC(=O)OC)NC(=O)OC [Febantel] ?
**Result** 0.89

**Query** What do we get for CN(Cc1cnc2nc(N)nc(N)c2n1)c1ccc(C(=O)N[C@@H](CCC(=O)O)C(=O)O)cc1 [Methotrexate disodium] ?
**Result** -1.46

* * *

system: Saccharomyces cerevisiae BY4741 SeMeCo community; test: z-score of subpopulation abundance vs DMSO median, subpopulation auxotrophic for HLM; higher = larger share of this subpopulation than in DMSO controls; conditions: 10 µM; 24 h; SM minimal medium; subpopulation (auxotrophy): HLM
Counter-ions that a name gives are not always drawn.
Some compounds, each annotated with its measured z-score of subpopulation abundance.
The answer should be a number; do not append a unit.

Consider the following illustrative entries.
{"columns": ["Compound", "z-score of subpopulation abundance"],
 "data": [
  ["CC[C@H]1OC(=O)C[C@@H](O)[C@H](C)[C@@H](O[C@@H]2O[C@H](C)[C@@H](O[C@H]3C[C@@](C)(O)[C@@H](O)[C@H](C)O3)[C@H](N(C)C)[C@H]2O)[C@@H](CC=O)C[C@@H](C)C(=O)/C=C/C(C)=C/[C@@H]1CO[C@@H]1O[C@H](C)[C@@H](O)[C@@H](OC)[C@H]1OC", 0.99],
  ["Clc1ccc(COC(Cn2ccnc2)c2ccc(Cl)cc2Cl)c(Cl)c1 (centres undefined) [Miconazole]", 12.2],
  ["CCC1(C)CC(=O)NC1=O (centres undefined) [Ethosuximide]", 0.8],
  ["COC(=O)C1=C(C)NC(C)=C(C(=O)OC2CCCN(Cc3ccccc3)C2)C1c1cccc([N+](=O)[O-])c1 (centres undefined) [Benidipine HCl]", 0.06]
]}

**Query** Query: z-score of subpopulation abundance; subject: Cc1cccc(C)c1OCC(C)N (centres undefined) [Mexiletine HCl]
**Result** -1.23

**Query** What do we get for `CC[C@H](C)[C@H](N)C1=N[C@H](C(=O)N[C@@H](CC(C)C)C(=O)N[C@H](CCC(=O)O)C(=O)N[C@H](C(=O)N[C@H]2CCCCNC(=O)[C@H](CC(N)=O)NC(=O)[C@@H](CC(=O)O)NC(=O)[C@H](Cc3cnc[nH]3)NC(=O)[C@@H](Cc3ccccc3)NC(=O)[C@H]([C@@H](C)CC)NC(=O)[C@@H](CCCN)NC2=O)[C@@H](C)CC)CS1` ?
**Result** 1.35

**Query** What do we get for CC(C)[C@H](N)C(=O)OCC(CO)OCn1cnc2c(=O)[nH]c(N)nc21 (some centres undefined) [Valganciclovir HCl] ?
**Result** 0.99

**Query** What do we get for CO/N=C(\C(=O)N[C@@H]1C(=O)N2C(C(=O)O)=C(CSC(=O)c3ccco3)CS[C@H]12)c1csc(N)n1 [Ceftiofur] ?
**Result** 0.23

**Query** What do we get for COc1ccc2[nH]c([S+]([O-])Cc3ncc(C)c(OC)c3C)nc2c1 (centres undefined) [Omeprazole Sodium] ?
**Result** -0.14

**Query** What do we get for C[C@@H](O)[C@H]1C(=O)N2C(C(=O)O)=C(S[C@@H]3CN[C@H](CNS(N)(=O)=O)C3)[C@H](C)[C@H]12 [Doripenem Hydrate] ?
**Result** -0.78

* * *

tested on: Saccharomyces cerevisiae BY4741 SeMeCo community; experiment: mean cell size (pixel area) (pixels); higher = larger cells; conditions: 10 µM; 24 h; SM minimal medium
Where a name gives a salt, the structure may show the parent alone.
Some compounds, each annotated with its measured mean cell size.

Consider the following illustrative entries.
{"columns": ["Compound", "Property", "Test Value"],
 "data": [
  ["N#Cc1ccc2[nH]cc(CCCCN3CCN(c4ccc5oc(C(N)=O)cc5c4)CC3)c2c1 [Vilazodone HCl]", "mean cell size", 12.3],
  ["CCCCOc1cc(C(=O)OCCN(CC)CC)ccc1N [Oxybuprocaine HCl]", "mean cell size", 12.6],
  ["N=C(N)NC(=N)N1CCOCC1 [Moroxydine HCl]", "mean cell size", 12.4],
  ["C#C[C@]1(O)CC[C@H]2[C@@H]3CCC4=Cc5oncc5C[C@]4(C)[C@H]3CC[C@@]21C", "mean cell size", 12.2],
  ["C=C1CC[C@@H]2[C@](C)(CO)[C@H](O)CC[C@@]2(C)[C@H]1C/C=C1\\C=COC1=O [Dehydroandrographolide]", "mean cell size", 12.4],
  ["CCCCCCCCCC(=O)CC(O)S(=O)(=O)O (stereo not drawn) [Sodium Houttuyfonate]", "mean cell size", 12]
]}

**Query** Request body: readout mean cell size, system Saccharomyces cerevisiae BY4741 SeMeCo community, query C/C=C1\[C@H]2C=C(C)C[C@]1(N)c1ccc(=O)[nH]c1C2 [(-)-Huperzine A (HupA)] . Return the value.
**Result** 12

**Query** What do we get for CO/N=C(\C(=O)N[C@@H]1C(=O)N2C(C(=O)[O-])=C(C[N+]3(C)CCCC3)CS[C@H]12)c1csc(N)n1 [Cefepime Dihydrochloride Monohydrate] ?
**Result** 12.4

* * *

test system: Saccharomyces cerevisiae BY4741 SeMeCo community; assay: z-score of subpopulation abundance vs DMSO median, subpopulation auxotrophic for U; higher = larger share of this subpopulation than in DMSO controls; settings: 10 µM; 24 h; SM minimal medium; subpopulation (auxotrophy): U
Where a name gives a salt, the structure may show the parent alone.
Property: z-score of subpopulation abundance
The answer should be a number; do not append a unit.

Consider the following illustrative entries.
{"columns": ["Molecule", "Property", "Test Value"],
 "data": [
  ["Cc1ccc(C(=O)C(C)CN2CCCCC2)cc1 (stereo not drawn) [Tolperisone HCl]", "z-score of subpopulation abundance", -0.15],
  ["COc1ccc(Cl)cc1C(=O)NCCc1ccc(S(=O)(=O)NC(=O)NC2CCCCC2)cc1 [Glyburide (Glibenclamide)]", "z-score of subpopulation abundance", -0.59],
  ["Cc1cc(C)nc(NS(=O)(=O)c2ccc(N)cc2)n1 [Sulfamethazine]", "z-score of subpopulation abundance", -0.82],
  ["CO[C@@H]1[C@@H](OC(N)=O)[C@@H](O)[C@H](Oc2ccc3c(O)c(NC(=O)c4ccc(O)c(CC=C(C)C)c4)c(=O)oc3c2C)OC1(C)C [Novobiocin Sodium]", "z-score of subpopulation abundance", 0.65],
  ["O=C(O)c1cc(=O)c2c(OCC(O)COc3cccc4oc(C(=O)O)cc(=O)c34)cccc2o1 [Disodium Cromoglycate]", "z-score of subpopulation abundance", 0.66]
]}

**Query** Query: z-score of subpopulation abundance; subject: `CSc1nc2cc(Cl)c(Oc3cccc(Cl)c3Cl)cc2[nH]1`
**Result** -0.92

**Query** What do we get for `O=c1ccc2cc(O)c(O)cc2o1` ?
**Result** -7.81

**Query** What do we get for NS(=O)(=O)Cc1noc2ccccc12 [Zonisamide] ?
**Result** -0.42

Each recorded value in this set is attributed to the supplement of paper PMC8975748.
